Molecular target: human GLP-1 receptor (human, UniProt P43220 24-463)
Assay: cell-based or functional assay
Where no end group is shown, it is not given here.
REPORTED_METRIC: Cyclic AMP-producing activity, relative to naturally occurring GLP-1 (=100%), at × 10^-9 M

INSERT INTO assay_data (binder, value_units, measured_number) VALUES
  ('HSEGTFTSDVSSYLEGQAAKEFIAWLVKGRRRRRR-NH2 [[Ser^8]-GLP-1 (7-35)-Arg-Arg-Arg-Arg-Arg-Arg-NH2]', '%', 75.6),
  ('HSEGTFTSDVSSYLEGQAAKEFIAWLVKGRRRRR-NH2 [[Ser^8]-GLP-1 (7-35)-Arg-Arg-Arg-Arg-Arg-NH2]', '%', 106),
  ('HSEGTFTSDVSSYLEGQAAKEFIAWLVKGKKKR-NH2 [[Ser^8]-GLP-1 (7-35)-Lys-Lys-Lys-Arg-NH2]', '%', 86.7);
